Where these numbers come from: the supplement of paper PMC9732359

experiment: protein stability index of a GFP-peptide fusion (yeast GPS) (PSI 1-4); higher = more stable; sorted into four equal gates, so the index is relative within each strain; details: san1∆
reported-metric: protein stability index
Number only, please.

sequence-entry	experimental-value
KPYKQVKQIAPAELEGL [FAS2]	2.47
NSTGHSSNTNNNTNNNN [SWI1]	3.17
LVSVVEAFIASGITDPY [FAS2]	1.67
NLEFDSTNHPDYDVSKK [SRP14]	3.2
GIKLQMQNSKVESVCQK [SMC4]	2.59
GRGGSGWKPYYKLFIWL [YML031W/NDC1]	1.41
YSEHLKPYDINVVLVTN [DIS3]	2.86

Query string: What measured protein stability index goes with YQSRGIDAMKAVAEAYN [RPN6] ?
Result string: 2.81

###

Recorded protein stability index values for a group of sequences are listed next.
assay: protein stability index of a GFP-peptide fusion (yeast GPS) (PSI 1-4); higher = more stable; sorted into four equal gates, so the index is relative within each strain; settings: doa10∆
Simply state the number, no unit and no words.

Past entries and their recorded results:
sequence-entry	protein stability index
KRLLYTRRFVNVTLVNG [RPS30A]	2.03
SIIQSKQDCVDWFTYSY [BRR2]	1.58

Query string: # input sequence: KTAKEVAGAIRAGIIIA [RPS2] ; wanted: its protein stability index
Result string: 2.49

Query string: Fill in the blank: the reported protein stability index of VATNIVNEDPIFHPMIH [YML103C/NUP188] is ____.
Result string: 2.53

###

assay: protein stability index of a GFP-peptide fusion (yeast GPS) (PSI 1-4); higher = more stable; sorted into four equal gates, so the index is relative within each strain; settings: doa10∆
reported-metric: protein stability index
Reply: number alone, nothing else.

Look over these answered cases.
sequence-entry	protein stability index
LFSLLELGEQKCQELVT [RRP46]	1.97
LWELALAFIPNILALNL [YML031W/NDC1]	2.01
RLKQVFNRALDQSISKL [NNF1]	2.05

Query string: Name the recorded protein stability index for YYNEISRDLDISSSTQC [POP6] .
Result string: 1.95

###

Reported protein stability index by item:
assay: protein stability index of a GFP-peptide fusion (yeast GPS) (PSI 1-4); higher = more stable; sorted into four equal gates, so the index is relative within each strain; details: san1∆

sequence-entry	reported-metric	experimental-value
PEYEKAMQYVCGDSIIC [SMC1]	protein stability index	1.88
LGSHSSSQKDGNDFKFN [REC8]	protein stability index	2.91
TWIQQFKSTMLQVSEKD [ARP7]	protein stability index	1.27
HQSELIIKQTVHPIPDV [YMR129W/POM152]	protein stability index	2.55
INSDNQNIILRSTMMKF [RPN3]	protein stability index	2.77
TFSGALGKQSSSLLSRL [FAS2]	protein stability index	3.22
QLNLNNLTPANILNMSM [PGD1]	protein stability index	2.75
TQLKKRAVSGVELRIYV [POP7]	protein stability index	2.44

Attention now turns to another entry.
Query string: Which protein stability index reading was recorded for the sequence GAIILTKMDGHARGGGA [SRP54] ?
Result string: 2.95

###

Readings of protein stability index for the listed sequences
experiment: protein stability index of a GFP-peptide fusion (yeast GPS) (PSI 1-4); higher = more stable; sorted into four equal gates, so the index is relative within each strain; conditions: doa10∆
Lab note: record just the number, no unit beside it.

sequence-entry	protein stability index
IPPDQQRLIFAGKQLED [RPS31]	2.92
LPLWHLLNRIPRMYHIG [POP1]	3.06

For the next question, use this sequence.
Query string: Would you kindly share the measured protein stability index for DDELMNWRRLSGRNIHL [SSN2] ?
Result string: 3
